- protocol.text: Steady-state pharmacokinetics of aliskiren 300 mg alone, hydrochlorothiazide interaction study, Day 15 (Example 7)
- Type: in vivo, human
- experimental.parameters: both sexes, human, in vivo, oral, 300 mg, Median, 300 mg daily, Day 15, healthy volunteers N 22
measure: Tmax (h)
# unit: h | format: bare number

Prompt line: Supply reported Tmax belonging to this compound: COCCCOc1cc(C[C@@H](C[C@H](N)[C@@H](O)C[C@H](C(=O)NCC(C)(C)C(N)=O)C(C)C)C(C)C)ccc1OC
Response line: 2.24

----------
- protocol.text: Steady-state pharmacokinetics of aliskiren 300 mg alone, digoxin interaction study, Day 7 (Example 8)
- Assay type: in vivo, human
- experimental.parameters: human, in vivo, oral, 300 mg, arithmetic mean, 300 mg daily, Day 7, healthy volunteers N 21
measure: AUC (ng·h/mL)
# unit: ng·h/mL | format: bare number

Prompt line: Supply reported AUC belonging to this compound: COCCCOc1cc(C[C@@H](C[C@H](N)[C@@H](O)C[C@H](C(=O)NCC(C)(C)C(N)=O)C(C)C)C(C)C)ccc1OC
Response line: 1670

----------
- protocol.text: Single-dose 300 mg pharmacokinetic study in healthy and type 2 diabetic subjects (Example 4)
- Format: in vivo, human
- experimental.parameters: human, plasma, po, 300 mg, arithmetic mean; single oral dose 300 mg, healthy subjects n = 30
measure: AUC(0-inf)

Prompt line: Supply reported AUC(0-inf) belonging to this molecule: COCCCOc1cc(C[C@@H](C[C@H](N)[C@@H](O)C[C@H](C(=O)NCC(C)(C)C(N)=O)C(C)C)C(C)C)ccc1OC
Response line: 1780 ng·h/mL

----------
- protocol.text: Single-dose four-period crossover pharmacokinetic study of 75, 150, 300 and 600 mg aliskiren (dosage form 3) in healthy volunteers (Example 3)
- Type: in vivo
- experimental.parameters: human, plasma; arithmetic mean (SD); single oral dose 150 mg, healthy subjects n = 30; read-out: AUC0-96
measure: AUC(0-t)
Write the numeric value and append its unit.

Prompt line: Supply reported AUC(0-t) belonging to this compound: COCCCOc1cc(C[C@@H](C[C@H](N)[C@@H](O)C[C@H](C(=O)NCC(C)(C)C(N)=O)C(C)C)C(C)C)ccc1OC
Response line: 530 ng·h/mL

----------
- protocol.text: Single-dose 300 mg pharmacokinetic study in healthy and type 2 diabetic subjects (Example 4)
- Format: in vivo, human
- experimental.parameters: human, plasma, po, 300 mg, arithmetic mean; single oral dose 300 mg, healthy subjects n = 30; read-out: Cmax
measure: Cmax

Prompt line: Supply reported Cmax belonging to this compound: COCCCOc1cc(C[C@@H](C[C@H](N)[C@@H](O)C[C@H](C(=O)NCC(C)(C)C(N)=O)C(C)C)C(C)C)ccc1OC
Response line: 0.348 µg/mL

----------
- protocol.text: Single-dose 300 mg pharmacokinetic study in healthy and type 2 diabetic subjects (Example 4)
- Format: in vivo, human
- experimental.parameters: human, plasma, po, 300 mg, Geometric Mean; single oral dose 300 mg, type 2 diabetic patients n = 30; read-out: tmax
measure: Tmax

Prompt line: Supply reported Tmax belonging to this compound: COCCCOc1cc(C[C@@H](C[C@H](N)[C@@H](O)C[C@H](C(=O)NCC(C)(C)C(N)=O)C(C)C)C(C)C)ccc1OC
Response line: 1.22 h

----------
- protocol.text: Single-dose 300 mg pharmacokinetic study in healthy and type 2 diabetic subjects (Example 4)
- Assay type: in vivo, human
- experimental.parameters: human, plasma, po, 300 mg, Median; single oral dose 300 mg, type 2 diabetic patients n = 30; read-out: Cmax
measure: Cmax (ng/mL)
# unit: ng/mL | format: bare number

Prompt line: Supply reported Cmax belonging to this compound: COCCCOc1cc(C[C@@H](C[C@H](N)[C@@H](O)C[C@H](C(=O)NCC(C)(C)C(N)=O)C(C)C)C(C)C)ccc1OC [aliskiren]
Response line: 328
